Attribution: ChEMBL document CHEMBL1132793

Kindly state TD50 for each of the entries shown.
# Measurement notes: Relative anticonvulsant potency in frings mice by peroral administration expressed as toxic dose
# Assay type: ADME, organism-based
# Reported conditions: mouse, in vivo, po

Each of the following entries comes with a recorded value; kindly state TD50 for each.
1. CC(N)CC(c1cccc(F)c1)c1cccc(F)c1 (configuration not stated)
2. C[C@H](N)CC(c1cccc(F)c1)c1cccc(F)c1

18.3 mg/kg
18.6 mg/kg

====

For each record, write down the corresponding ED50.
# Tested on: Mus musculus
# Measurement notes: Relative anticonvulsant potency in frings mice by intraperitoneal administration expressed as effective dose
# Type: functional
# Reported conditions: ip
Numbers only, in mg/kg.

Batch request: ED50 per item, same order as input.
1. C[C@H](N)CC(c1cccc(F)c1)c1cccc(F)c1
2. NCCC(c1cccc(F)c1)c1cccc(F)c1
3. CC(N)CC(c1cccc(F)c1)c1cccc(F)c1 (centres undefined)
4. C[C@@H](N)CC(c1cccc(F)c1)c1cccc(F)c1

2.7
2.1
4.9
9.1
